Taken from the supplement of paper PMC10065799.

In this section we review reported phosphorylation enrichment values for a set of sequences.
Biological target: MERTK (UniProt Q12866)
Sequence (Q12866 whole entry, looked up): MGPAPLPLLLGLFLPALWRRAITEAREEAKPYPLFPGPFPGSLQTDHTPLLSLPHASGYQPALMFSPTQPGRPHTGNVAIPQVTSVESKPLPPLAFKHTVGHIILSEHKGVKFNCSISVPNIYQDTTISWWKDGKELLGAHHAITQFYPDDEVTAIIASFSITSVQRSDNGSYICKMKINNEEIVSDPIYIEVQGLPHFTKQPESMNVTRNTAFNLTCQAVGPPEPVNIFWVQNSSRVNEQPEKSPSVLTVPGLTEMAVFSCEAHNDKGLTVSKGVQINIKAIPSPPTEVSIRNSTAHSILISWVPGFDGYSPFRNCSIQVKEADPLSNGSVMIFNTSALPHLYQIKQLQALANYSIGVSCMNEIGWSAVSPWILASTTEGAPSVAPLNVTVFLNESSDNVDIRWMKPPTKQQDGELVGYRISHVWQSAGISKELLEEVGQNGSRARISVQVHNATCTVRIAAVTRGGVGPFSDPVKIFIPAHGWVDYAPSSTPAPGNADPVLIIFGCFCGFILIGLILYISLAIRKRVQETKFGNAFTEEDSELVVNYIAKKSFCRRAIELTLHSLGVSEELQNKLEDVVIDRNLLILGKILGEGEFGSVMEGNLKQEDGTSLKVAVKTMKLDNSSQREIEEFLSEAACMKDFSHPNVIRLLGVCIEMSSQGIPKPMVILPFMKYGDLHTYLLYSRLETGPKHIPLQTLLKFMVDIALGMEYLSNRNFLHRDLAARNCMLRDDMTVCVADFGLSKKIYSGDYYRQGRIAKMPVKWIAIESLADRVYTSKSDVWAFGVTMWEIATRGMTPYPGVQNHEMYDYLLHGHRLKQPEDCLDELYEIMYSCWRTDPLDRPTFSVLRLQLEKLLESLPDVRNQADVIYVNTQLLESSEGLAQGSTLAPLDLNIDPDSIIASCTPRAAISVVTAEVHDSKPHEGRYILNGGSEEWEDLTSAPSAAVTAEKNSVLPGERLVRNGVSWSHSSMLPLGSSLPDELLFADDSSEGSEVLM
Experiment: phosphorylation enrichment, bacterial display (enrichment ratio); higher = better substrate or ligand; peptides without Tyr show the background;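 note: 11-residue human phosphosite peptides and single-mutation variants displayed on the E. coli surface, counted by deep sequencing, each peptide's frequency after selection divided by its frequency in the unselected input library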;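 note: frequency after pTyr selection over input frequency; kinase dosed for 20-30% of maximal phosphorylation in three min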
// return just the number, without any unit appended

Check out these entries, answers already filled in.
RNFGTYTAGLS [RHBDD1_Y264_D262G_YF]: 0.302
DGTESYHTVSS [PLK1_Y462_L463H]: 0.299
GGSDCYGSLRP [MYLK_Y846_R845C]: 0.429
VITTLYIGFLG [KCNQ1_Y267_L262V]: 0.659

Challenge: Return reported phosphorylation enrichment. Input sequence: LLSISYVGCSL [ADGRD1_Y571_S567L]
Response given: 0.761

Challenge: Supply measured phosphorylation enrichment of GLSSAYGDLTS [KRT8_Y427_G429D] in your reply.
Response given: 0.413

Challenge: Supply reported phosphorylation enrichment belonging to this sequence: DLDLTYIYPNI [PTEN_Y27]
Response given: 2.41
